Listed molecules paired with reported melting point

Use these answered entries as a reference point.
molecule="COC(=O)[C@@H]1CC[C@H]2C(CC[C@H]3C(C)(C)CCC[C@]23C)C(=O)C1 (mixture of isomers)" result="67 to 68 °C"
molecule="COC(=O)C1=CC[C@H]2[C@@H](CC[C@H]3C(C)(C)CCC[C@]23C)C(=O)C1 (racemic)" result="93 to 94 °C"
molecule="CC1(C)CCC[C@]2(C)[C@H]3CC=C(CO)C[C@@H](O)[C@@H]3CC[C@@H]12 (racemic)" result="134 to 135 °C"

In: Item under review: COC(=O)C1=CCC2C(CO)(CCC3C(C)(C)CCCC32C)C(=O)C1 (stereo not shown) . Reported melting point?
Out: 179 to 180 °C

----------
- measurement.target: GLP-1 receptor (Rattus norvegicus, UniProt P32301)
- Sequence (P32301 22-463): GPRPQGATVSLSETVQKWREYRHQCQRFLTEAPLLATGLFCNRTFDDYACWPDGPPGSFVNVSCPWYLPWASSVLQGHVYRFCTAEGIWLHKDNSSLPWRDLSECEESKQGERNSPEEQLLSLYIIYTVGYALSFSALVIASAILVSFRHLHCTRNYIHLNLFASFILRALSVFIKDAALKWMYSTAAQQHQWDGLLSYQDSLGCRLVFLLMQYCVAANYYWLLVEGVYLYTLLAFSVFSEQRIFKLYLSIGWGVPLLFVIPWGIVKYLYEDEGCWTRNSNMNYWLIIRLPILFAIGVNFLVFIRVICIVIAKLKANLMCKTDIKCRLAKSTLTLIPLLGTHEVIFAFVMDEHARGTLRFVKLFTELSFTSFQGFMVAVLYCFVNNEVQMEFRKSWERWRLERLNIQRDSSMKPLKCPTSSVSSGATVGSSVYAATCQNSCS
- method.notes: cell-based
experimental.readout: EC50 (µM)
Give the value in µM but do not write µM after it.

In: Recorded EC50 for CC1(C)CCC[C@@]2(C)[C@H]1CC[C@@]1(CO)C(O)CC(CO)=CC[C@@H]12 (stereo partly shown) with GLP-1 receptor (Rattus norvegicus, UniProt P32301), please?
Out: 3.1

Source listed as patent US20150197480A9.
